System: carbapenem-resistant Klebsiella pneumoniae clinical isolates (blaKPC)
Experimental details: DDM (digital dispensing method) MIC testing of CRE isolates
Assay type: cell-based
Condition context: Klebsiella pneumoniae, BIDMC 12A, KPN, KPC type 3; read-out: DDM modal MICs
Provide the recorded MIC for the entries that follow.
Numeric answer only, unit µg/mL assumed.

# MIC lookup, item O=C(N[C@H](CO)[C@H](O)c1ccc([N+](=O)[O-])cc1)C(Cl)Cl
64

Then this molecule: CO/N=C(\C(=O)N[C@@H]1C(=O)N2C(C(=O)[O-])=C(C[N+]3(C)CCCC3)CS[C@H]12)c1csc(N)n1 [FEP, cefepime]
16

Then this molecule: CN(C)c1ccc(O)c2c1C[C@H]1C[C@H]3[C@H](N(C)C)C(O)=C(C(N)=O)C(=O)[C@@]3(O)C(O)=C1C2=O
4

Then this molecule: CO[C@H]1/C=C/O[C@@]2(C)Oc3c(C)c(O)c4c(O)c(c(/C=N/N5CCN(C)CC5)c(O)c4c3C2=O)NC(=O)/C(C)=C\C=C\[C@H](C)[C@H](O)[C@@H](C)[C@@H](O)[C@@H](C)[C@H](OC(C)=O)[C@@H]1C
32

Then this molecule: C[C@@H](O)[C@H]1C(=O)N2C(C(=O)O)=C(S[C@@H]3CN[C@H](C(=O)N(C)C)C3)[C@H](C)[C@H]12
8

Then this molecule: C[C@@H]1O[C@@H]1P(=O)(O)O
8

Then this molecule: C[C@H]1COc2c(N3CCN(C)CC3)c(F)cc3c(=O)c(C(=O)O)cn1c23
32

Then this molecule: C[C@@H](O)[C@H]1C(=O)N2C(C(=O)O)=C(S[C@@H]3CN[C@H](C(=O)Nc4cccc(C(=O)O)c4)C3)[C@H](C)[C@H]12
32

====

Test system: carbapenem-resistant Escherichia coli clinical isolates (blaKPC)
Experimental details: DDM (digital dispensing method) MIC testing of CRE isolates
Format: cell-based
Condition context: Escherichia coli, BIDMC 6, ECO, KPC type 2; read-out: DDM modal MICs
Measured quantity: log10 MIC (log10 of the value in µg/mL)
Friendly reminder: values = log10 of MIC, unit µg/mL.

# returns recorded log10 MIC (system: carbapenem-resistant Escherichia coli clinical isolates (blaKPC)) for C[C@@H](O)[C@H]1C(=O)N2C(C(=O)O)=C(S[C@@H]3CN[C@H](C(=O)N(C)C)C3)[C@H](C)[C@H]12 [Meropenem (MEM), Meropenem]
0.30

Then this compound: O=C(N[C@H](CO)[C@H](O)c1ccc([N+](=O)[O-])cc1)C(Cl)Cl [CHL, chloramphenicol]
0.90

Then this compound: CO/N=C(\C(=O)N[C@@H]1C(=O)N2C(C(=O)[O-])=C(C[N+]3(C)CCCC3)CS[C@H]12)c1csc(N)n1 [FEP, cefepime]
0.90

Then this compound: CO[C@H]1/C=C/O[C@@]2(C)Oc3c(C)c(O)c4c(O)c(c(/C=N/N5CCN(C)CC5)c(O)c4c3C2=O)NC(=O)/C(C)=C\C=C\[C@H](C)[C@H](O)[C@@H](C)[C@@H](O)[C@@H](C)[C@H](OC(C)=O)[C@@H]1C [RIF, rifampin]
1.20

Then this compound: C[C@@H]1O[C@@H]1P(=O)(O)O [FOF, fosfomycin]
-0.30

Then this compound: C[C@@H](O)[C@H]1C(=O)N2C(C(=O)O)=C(S[C@@H]3CN[C@H](C(=O)Nc4cccc(C(=O)O)c4)C3)[C@H](C)[C@H]12 [ETP, ertapenem]
0.90

Then this compound: C[C@H]1COc2c(N3CCN(C)CC3)c(F)cc3c(=O)c(C(=O)O)cn1c23 [LVX, levofloxacin]
1.20

Then this compound: CN(C)c1ccc(O)c2c1C[C@H]1C[C@H]3[C@H](N(C)C)C(O)=C(C(N)=O)C(=O)[C@@]3(O)C(O)=C1C2=O [MIN, minocycline]
0.00

Origin of the recorded values: patent US20230304064A1
